B1: KCNA3 (parent)
chain: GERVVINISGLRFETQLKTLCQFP

# Variants of: B1
# assay_text: protein stability index of a GFP-peptide fusion (GPS, HEK-293T) (PSI 1-6); higher = more stable;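 also: lentivirally expressed fusions sorted by FACS into six bins by GFP to DsRed ratio, PSI derived from sequencing read proportions per bin multiplied by bin number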
# experimental_conditions: c terminus: a fixed tail appended
protein stability index below 3 gives n; protein stability index at or above it gives y.

[[record]]
polymer_sequence = "MERVVINISGLRFETQLKTLCQFP [G1M]"
label_value = "y"

[[record]]
polymer_sequence = "GERVVINISGLRFETQLKTLCQFI [P24I]"
label_value = "n"

[[record]]
polymer_sequence = "GERVQINISGLRFETQLKTLCQFP [V5Q]"
label_value = "n"

[[record]]
polymer_sequence = "GERVVINILGLRFETQLKTLCQFP [S9L]"
label_value = "n"

[[record]]
polymer_sequence = "GEYVVINISGLRFETQLKTLCQFP [R3Y]"
label_value = "y"

[[record]]
polymer_sequence = "GERVVINISGLRFETGLKTLCQFP [Q16G]"
label_value = "n"

[[record]]
polymer_sequence = "GERVVIQISGLRFETQLKTLCQFP [N7Q]"
label_value = "n"

[[record]]
polymer_sequence = "GERVVINISGLRAETQLKTLCQFP [F13A]"
label_value = "n"

[[record]]
polymer_sequence = "GERVVINISGLRFELQLKTLCQFP [T15L]"
label_value = "y"

[[record]]
polymer_sequence = "DERVVINISGLRFETQLKTLCQFP [G1D]"
label_value = "n"


Here is another variant to look at.
Does the reported protein stability index for GERVVINIEGLRFETQLKTLCQFP [S9E] fall at or above the 3 mark?
y
